Target: human recombinant HDAC6 (Homo sapiens)
Construct: purchased Calbiochem 382180
Sequence (Q9UBN7 whole entry): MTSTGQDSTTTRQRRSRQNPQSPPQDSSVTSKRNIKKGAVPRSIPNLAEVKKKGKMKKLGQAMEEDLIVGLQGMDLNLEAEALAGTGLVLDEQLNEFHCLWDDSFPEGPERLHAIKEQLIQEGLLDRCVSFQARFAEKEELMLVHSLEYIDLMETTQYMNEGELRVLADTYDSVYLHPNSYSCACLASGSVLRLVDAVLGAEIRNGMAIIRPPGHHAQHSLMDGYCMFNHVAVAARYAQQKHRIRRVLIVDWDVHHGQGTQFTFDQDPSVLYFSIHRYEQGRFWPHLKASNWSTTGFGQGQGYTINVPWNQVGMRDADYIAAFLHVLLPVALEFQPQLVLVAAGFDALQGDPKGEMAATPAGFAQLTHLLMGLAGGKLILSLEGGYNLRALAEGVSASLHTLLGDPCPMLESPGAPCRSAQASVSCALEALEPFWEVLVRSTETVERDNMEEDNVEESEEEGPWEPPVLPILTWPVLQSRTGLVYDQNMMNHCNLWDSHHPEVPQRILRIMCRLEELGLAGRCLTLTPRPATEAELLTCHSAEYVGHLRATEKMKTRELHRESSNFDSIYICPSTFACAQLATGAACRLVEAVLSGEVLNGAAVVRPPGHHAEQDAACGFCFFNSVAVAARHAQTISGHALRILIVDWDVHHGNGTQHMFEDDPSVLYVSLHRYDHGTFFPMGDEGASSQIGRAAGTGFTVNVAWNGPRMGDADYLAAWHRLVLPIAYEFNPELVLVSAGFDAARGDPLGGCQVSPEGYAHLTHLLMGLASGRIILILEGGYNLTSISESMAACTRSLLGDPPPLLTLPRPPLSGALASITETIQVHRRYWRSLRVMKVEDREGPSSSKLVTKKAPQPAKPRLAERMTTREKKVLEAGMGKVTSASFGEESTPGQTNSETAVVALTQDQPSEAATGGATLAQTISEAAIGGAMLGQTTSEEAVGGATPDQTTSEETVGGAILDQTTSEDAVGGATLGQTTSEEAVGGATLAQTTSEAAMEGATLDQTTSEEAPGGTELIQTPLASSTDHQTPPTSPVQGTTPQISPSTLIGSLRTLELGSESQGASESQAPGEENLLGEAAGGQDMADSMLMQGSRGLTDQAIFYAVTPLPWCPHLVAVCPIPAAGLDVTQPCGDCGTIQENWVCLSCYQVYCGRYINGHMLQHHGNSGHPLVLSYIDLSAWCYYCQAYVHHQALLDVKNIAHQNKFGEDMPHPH
Assay: HDAC6 enzyme activity inhibition assay (in vitro, fluorimetric)
Type: biochemical
Details: HDAC6 selectivity over HDAC1
Procedure: In order to examine the HDAC6 selectivity of the compounds of formula 1 of the present invention by HDAC1 and HDAC6 enzymatic activity inhibition assays, an experiment was performed using a conventional substance as a control. HDAC enzyme activity was measured using a HDAC Fluorimetric Drug Discovery Kit (BML-AK511, 516, Enzo Life Science). […] Based on the resulting values, each IC50 value was calculated using GraphPad Prism4.0 program.
value.type: HDAC6 selectivity (fold)

C[C@@H]1CN(Cc2ccc(C(=O)NO)cc2)C[C@H](C)N1Cc1cccc(-c2ccco2)c1 [Compound 342] : 456
C[C@@H]1CN(C(=O)Cc2cccc(C3=CCC(C)(C)CC3)c2)C[C@H](C)N1Cc1ccc(C(=O)NO)cc1 [Compound 253] : 15
C[C@@H]1CN(C(=O)Cc2cccc(-c3ccncc3)c2)C[C@H](C)N1Cc1ccc(C(=O)NO)cc1 [Compound 251] : 57

1: Cc1nccn1-c1ccccc1CN1C[C@@H](C)N(Cc2ccc(C(=O)NO)cc2)[C@@H](C)C1 [Compound 305]
2: CC(=O)N1CCN(Cc2cccc(CN3[C@H](C)CN(Cc4ccc(C(=O)NO)cc4)C[C@@H]3C)c2)CC1 [Compound 431]
Compare HDAC6 selectivity (fold): is it lower for 1 or for 2 ? Could you answer with the label of the item you picked? 1
(1: 174 fold, 2: 611 fold)
